molecular target: T1, HLA-DRB1*01:01 (human); test: HLA class II competition binding assay
T1 construct: MHC class II molecule; how it was prepared for the assay is not described
pIC50: −log10 of the molar value.
endpoint_name: pIC50

(I) LSQLQTYMIQFDQYI [ApoB100 peptide 3563.0012]
(II) TLTAFGFASADLIEI [ApoB100 peptide 3563.0005]
input: Would you kindly point out which of I and II has the smaller pIC50 figure? Output the label that corresponds to your choice.
output: I
